Endpoint summary: pIC50, system: Fibroblast growth factor receptor 3 (Homo sapiens), multiple sources combined.
# log scale: pIC50 equals minus log10 of the concentration in mol/L

Would you please look over these solved cases?
CNC(=O)c1cc(CCc2cnc(Nc3cnn([C@H]4CCCNC4)c3)nc2)c(F)c(OC)c1 : 8.10
CCN(CC)CCn1cc(Nc2ncc(OCc3cc(C(=O)NC)cc(OC)c3Cl)cn2)cn1 : 8.15
CNC(=O)c1cc(CCc2cnc(Nc3cnn(C[C@H](C)O)c3)nc2)c(F)c(OC)c1 : 8.30
CCN1CCN(c2cccc(Nc3ncc(CCc4cc(OC)cc(C(=O)NC)c4)cn3)c2)CC1 : 7.19
COc1cc(C)cc2cc(-c3c(CN(C)CC(N)=O)cn4ncnc(N)c34)sc12 : 9.10
COc1cc(C)cc2cc(-c3c(CNC4CCS(=O)(=O)C4)cn4ncnc(N)c34)sc12 (stereo not shown) : 8.26

## Input State pIC50 (Fibroblast growth factor receptor 3 (Homo sapiens)) of "CCn1cc(Nc2ncc(CCc3cc(C(=O)NC)cc(OC)c3C#N)cn2)cn1" .
## Output 7.04

## Input State pIC50 (Fibroblast growth factor receptor 3 (Homo sapiens)) of "C=CC(=O)Nc1cc(OCCC(F)(F)F)ccc1C(=O)Nc1cc(CCc2cc(OC)cc(OC)c2)n[nH]1" .
## Output 8.36

## Input State pIC50 (Fibroblast growth factor receptor 3 (Homo sapiens)) of "COc1cc(C)cc2cc(-c3c(CN4CCC(F)(F)C4)cn4ncnc(N)c34)sc12" .
## Output 8.52

## Input State pIC50 (Fibroblast growth factor receptor 3 (Homo sapiens)) of "CONC(=O)c1cc(CCc2cnc(Nc3cn[nH]c3)nc2)cc(OC)c1" .
## Output 7.82

----------
pIC50: −log10 of the molar value.
Endpoint summary: pIC50, system: UniProt:P22607, multiple sources combined.

CNC(=O)c1cc(F)c(F)c(-c2cnn3cc(-c4cnn(C5CN(C)C5)c4)c(O[C@H]4CCOC4)nc23)c1 : > 8.00
FC(F)c1c(-c2c(Cl)cccc2Cl)nc2c3cc(-c4cnn(C5CCOCC5)c4)cnc3ccn12 : > 9.00
COc1cc(OC)c(F)c(N2Cc3cnc(NC4CCC4)cc3C3(CC3)C2=O)c1F : > 7.00
COc1cc(OC)c(F)c(N2Cc3cnc(N)c(-c4ccnn4C)c3N(C)C2=O)c1F : > 7.00
COc1cc(OC)c(Cl)c(-c2cnc3c(-c4cnn(CCCO)c4)n[nH]c3c2)c1Cl : > 7.00

## Input State pIC50 (UniProt:P22607) of COc1cc(OC)c(Cl)c(-c2ncc3c(-c4cnn(C(C)C#N)c4)n[nH]c3n2)c1Cl (stereo not shown) .
## Output > 7.00

## Input State pIC50 (UniProt:P22607) of N#Cc1ccc(NC(=O)N2CCC(O)c3ccc(C=O)nc32)nc1 (racemic) .
## Output < 5.00

## Input State pIC50 (UniProt:P22607) of CC(C)C1C(=O)N(C)CCN1c1ccc2[nH]nc(-c3cn(C)nn3)c2n1 (stereo not shown) .
## Output 6.70 to 7.52

## Input State pIC50 (UniProt:P22607) of "C=CC(=O)NCc1cc2c(cn1)CN(c1c(F)c(OC)cc(OC)c1F)C(=O)N2CC(F)(F)F" .
## Output < 6.70

## Input State pIC50 (UniProt:P22607) of "N#CCC(=O)N1CCC(n2cc(-c3ccc4c(c3)ncn4-c3cccc(NC(=O)NCC(F)(F)F)c3)cn2)CC1" .
## Output > 8.00
